method description: self-splicing fitness, log relative to wild type (ln ratio); higher = more splicing; Tetrahymena group I intron in knt gene, E. coli kanamycin selection, DiMSum; sequences stand for … in CUCUCU…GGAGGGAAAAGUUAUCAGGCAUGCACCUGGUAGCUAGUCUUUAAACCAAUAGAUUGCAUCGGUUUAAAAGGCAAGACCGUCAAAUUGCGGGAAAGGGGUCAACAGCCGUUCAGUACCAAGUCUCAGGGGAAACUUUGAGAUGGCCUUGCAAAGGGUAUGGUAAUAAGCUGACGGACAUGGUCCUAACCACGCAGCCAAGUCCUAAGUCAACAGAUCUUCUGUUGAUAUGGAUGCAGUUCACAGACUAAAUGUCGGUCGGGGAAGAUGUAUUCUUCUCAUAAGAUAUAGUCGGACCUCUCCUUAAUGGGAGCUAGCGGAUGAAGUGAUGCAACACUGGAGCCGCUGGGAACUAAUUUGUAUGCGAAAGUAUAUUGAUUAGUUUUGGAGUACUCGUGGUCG;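 note: selection with 25 µg/mL kanamycin versus none on LB agar overnight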
setup conditions: 37 °C
Please mark MET if the recorded self-splicing fitness (ln) is equal to or greater than -2, and NOT MET if it falls below.

Below are worked cases with known answers.
[[record]]
sequence = "CUCAAGCAAUAUUACGAAUC"
cat = "MET"

[[record]]
sequence = "AACAAGCAAUAUUACGCGCC"
cat = "MET"

[[record]]
sequence = "CGAAAGCAAUAUUACGUGUA"
cat = "NOT MET"


**Query** Could you verify whether the entry UGAUAGCAAUAUUACGCUGU shows self-splicing fitness (ln) of no less than -2?
**Result** NOT MET

**Query** Could you verify whether the entry UUGUAGCAAUAUUACGCGCU shows self-splicing fitness (ln) of no less than -2?
**Result** MET

**Query** Could you verify whether the entry CGCAAGCAAUAUUACGCUUU shows self-splicing fitness (ln) of no less than -2?
**Result** NOT MET

**Query** Could you verify whether the entry GCGAAGCAAUAUUACGACUA shows self-splicing fitness (ln) of no less than -2?
**Result** MET

**Query** Could you verify whether the entry UAUCAGCAAUAUUACGCGCG shows self-splicing fitness (ln) of no less than -2?
**Result** MET

**Query** Could you verify whether the entry CACAAGCAAUAUUACGUUCG shows self-splicing fitness (ln) of no less than -2?
**Result** MET

**Query** Could you verify whether the entry AUUAAGCAAUAUUACGUGUA shows self-splicing fitness (ln) of no less than -2?
**Result** MET

**Query** Could you verify whether the entry UUCAAGCAAUAUUACGGGGG shows self-splicing fitness (ln) of no less than -2?
**Result** MET

**Query** Could you verify whether the entry CUUAAGCAAUAUUACGGACC shows self-splicing fitness (ln) of no less than -2?
**Result** MET

**Query** Could you verify whether the entry AGAGAGCAAUAUUACGGCGC shows self-splicing fitness (ln) of no less than -2?
**Result** NOT MET

**Query** Could you verify whether the entry GCAGAGCAAUAUUACGCAAC shows self-splicing fitness (ln) of no less than -2?
**Result** NOT MET

**Query** Could you verify whether the entry CCUGAGCAAUAUUACGGUUU shows self-splicing fitness (ln) of no less than -2?
**Result** NOT MET

**Query** Could you verify whether the entry GAAUAGCAAUAUUACGGUGC shows self-splicing fitness (ln) of no less than -2?
**Result** NOT MET
